- target_system: Rac GTPase-activating protein 1 (Homo sapiens) (UniProt Q9H0H5)
- Sequence (Q9H0H5 whole entry, looked up): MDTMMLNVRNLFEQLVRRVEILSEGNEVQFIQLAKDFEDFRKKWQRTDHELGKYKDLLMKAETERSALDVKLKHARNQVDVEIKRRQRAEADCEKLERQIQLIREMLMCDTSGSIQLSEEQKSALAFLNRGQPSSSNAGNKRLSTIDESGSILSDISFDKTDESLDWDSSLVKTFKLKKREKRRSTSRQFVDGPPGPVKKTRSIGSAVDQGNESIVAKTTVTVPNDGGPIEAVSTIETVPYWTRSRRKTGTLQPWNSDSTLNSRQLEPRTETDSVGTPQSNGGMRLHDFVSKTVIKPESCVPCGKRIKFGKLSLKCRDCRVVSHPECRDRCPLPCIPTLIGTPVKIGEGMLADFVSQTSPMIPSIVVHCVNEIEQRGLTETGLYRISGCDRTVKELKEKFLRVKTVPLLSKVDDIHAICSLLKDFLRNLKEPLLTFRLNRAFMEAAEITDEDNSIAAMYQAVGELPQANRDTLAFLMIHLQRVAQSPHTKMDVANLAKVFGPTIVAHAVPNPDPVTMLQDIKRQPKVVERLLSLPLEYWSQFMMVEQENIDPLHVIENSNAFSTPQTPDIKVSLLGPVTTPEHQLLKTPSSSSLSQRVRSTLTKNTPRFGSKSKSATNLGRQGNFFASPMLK
- assay_summary: blockers of MgcRacGAP-driven Rac1 GTP hydrolysis – biochemical, ADP Hunter fluorescence, primary and confirmatory, confirmation (AID 624330);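 note: fluorescence reports GDP produced by GAP-driven GTP hydrolysis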
- experimental_context: MgcRacGAP-stimulated Rac1 GTP hydrolysis, at 30 µM, active compounds read high, GST-tagged Rac1 F28L mutant substrate
Among all 340,000 compounds or so, about 2,100 (0.62%) were called active. A selection follows. Potency and affinity values are given separately.
measurement_kind: inhibition

Example results:
{"molecule": "COc1ccc(Nc2nnc(SCC(=O)NC3CCS(=O)(=O)C3)s2)cc1 (stereo unspecified)", "target_system": "Rac GTPase-activating protein 1 (Homo sapiens) (UniProt Q9H0H5)", "inhibition": "4.04% (inactive)"}
{"molecule": "O=C1ON=C(c2ccccc2)/C1=C/c1cccnc1", "target_system": "Rac GTPase-activating protein 1 (Homo sapiens) (UniProt Q9H0H5)", "inhibition": "3.82% (inactive)"}
{"molecule": "NS(=O)(=O)c1ccc(-c2ccc(C=C3C(=O)c4ccccc4C3=O)o2)cc1", "target_system": "Rac GTPase-activating protein 1 (Homo sapiens) (UniProt Q9H0H5)", "inhibition": "2.34% (inactive)"}
{"molecule": "COc1cc(CCC(=O)OCC(=O)N(CCC#N)c2ccccc2)cc(OC)c1OC", "target_system": "Rac GTPase-activating protein 1 (Homo sapiens) (UniProt Q9H0H5)", "inhibition": "7.7% (inactive)"}
{"molecule": "CCN(CC)C(=O)CSc1nc2c(sc(=S)n2CC)c(=O)n1-c1ccccc1", "target_system": "Rac GTPase-activating protein 1 (Homo sapiens) (UniProt Q9H0H5)", "inhibition": "2.69% (inactive)"}

Continue with the molecule presented below.
Ask: inhibition of COc1ccc(C(=O)Nc2ccccc2NC(=O)c2ccco2)cc1OC on Rac GTPase-activating protein 1 (Homo sapiens) (UniProt Q9H0H5)?
Result: 11% (inactive)
